Target: TrkC (Homo sapiens)
Sequence (Q16288 32-839, species assumed): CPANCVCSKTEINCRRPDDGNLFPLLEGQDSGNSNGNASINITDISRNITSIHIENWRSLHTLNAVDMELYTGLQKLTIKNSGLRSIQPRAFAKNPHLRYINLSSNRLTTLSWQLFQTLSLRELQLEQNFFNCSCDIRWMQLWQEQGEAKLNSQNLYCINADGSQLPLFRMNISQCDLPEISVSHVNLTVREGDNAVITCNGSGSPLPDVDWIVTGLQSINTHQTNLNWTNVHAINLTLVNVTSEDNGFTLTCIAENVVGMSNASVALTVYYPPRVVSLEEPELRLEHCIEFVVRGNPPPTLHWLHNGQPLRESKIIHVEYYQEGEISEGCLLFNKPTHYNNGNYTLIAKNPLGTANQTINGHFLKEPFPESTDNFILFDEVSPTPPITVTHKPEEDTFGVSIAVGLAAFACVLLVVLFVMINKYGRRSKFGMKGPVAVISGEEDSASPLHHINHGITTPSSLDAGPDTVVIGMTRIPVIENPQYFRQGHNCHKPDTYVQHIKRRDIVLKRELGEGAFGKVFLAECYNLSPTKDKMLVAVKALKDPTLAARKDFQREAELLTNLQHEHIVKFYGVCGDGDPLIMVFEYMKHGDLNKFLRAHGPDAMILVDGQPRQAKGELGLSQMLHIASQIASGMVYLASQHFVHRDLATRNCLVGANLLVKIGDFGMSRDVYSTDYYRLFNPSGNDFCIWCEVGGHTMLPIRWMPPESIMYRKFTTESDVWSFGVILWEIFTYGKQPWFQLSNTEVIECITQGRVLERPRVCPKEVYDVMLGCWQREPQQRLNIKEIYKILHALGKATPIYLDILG
Experiment: PathHunter whole cell functional assay, NT3 stimulated TrkC activation
Details: triplicate
pIC50: −log10 of the molar value.
Recorded Endpoint: pIC50

# pIC50 (molecule: `O=C(O)c1ccc(Nc2cc(N3CCN(C4CCCCC4)CC3)c3noc4c3c2C(=O)c2ccccc2-4)cc1` ) is < 5.00

----------
Assay: Rat pharmacokinetics (plasma, LC-MS/MS, non-compartmental analysis)
Format: in vivo
Settings: male, CD IGS, plasma, oral
Experimental: Compound I was dosed to nonfasted male CD IGS rats (weighting 180-250 g, Charles River Laboratories) by single intravenous (IV, n=3/group) or oral gavage (PO, n=4/group, including control rat group for drug-free blood and brain collection) administration at a nominal dose levels of 3 mg/kg (IV) or 5 mg/kg (IV) and 10, 50, 100 mg/kg (PO) respectively. […] Plasma and brain samples were subjected to quantitative analysis by LC-MS/MS using compound-specific mass transitions. […]
# key: entry, value: bioavailability

# Chemical Structure, bioavailability
measured = [
    ("O=C(O)c1ccc(Nc2cc(N3CCN(C4CCCCC4)CC3)c3noc4c3c2C(=O)c2ccccc2-4)cc1", "< 20%"),
]

Consider now this further molecule.
# bioavailability (molecule: `O=C([O-])c1ccc(Nc2cc(N3CCN(C4CCCCC4)CC3)c3noc4c3c2C(=O)c2ccccc2-4)cc1.[Na+]` ) is 90 to 100%

----------
Target: TrkB (Homo sapiens)
Sequence (Q16620 32-822, species assumed): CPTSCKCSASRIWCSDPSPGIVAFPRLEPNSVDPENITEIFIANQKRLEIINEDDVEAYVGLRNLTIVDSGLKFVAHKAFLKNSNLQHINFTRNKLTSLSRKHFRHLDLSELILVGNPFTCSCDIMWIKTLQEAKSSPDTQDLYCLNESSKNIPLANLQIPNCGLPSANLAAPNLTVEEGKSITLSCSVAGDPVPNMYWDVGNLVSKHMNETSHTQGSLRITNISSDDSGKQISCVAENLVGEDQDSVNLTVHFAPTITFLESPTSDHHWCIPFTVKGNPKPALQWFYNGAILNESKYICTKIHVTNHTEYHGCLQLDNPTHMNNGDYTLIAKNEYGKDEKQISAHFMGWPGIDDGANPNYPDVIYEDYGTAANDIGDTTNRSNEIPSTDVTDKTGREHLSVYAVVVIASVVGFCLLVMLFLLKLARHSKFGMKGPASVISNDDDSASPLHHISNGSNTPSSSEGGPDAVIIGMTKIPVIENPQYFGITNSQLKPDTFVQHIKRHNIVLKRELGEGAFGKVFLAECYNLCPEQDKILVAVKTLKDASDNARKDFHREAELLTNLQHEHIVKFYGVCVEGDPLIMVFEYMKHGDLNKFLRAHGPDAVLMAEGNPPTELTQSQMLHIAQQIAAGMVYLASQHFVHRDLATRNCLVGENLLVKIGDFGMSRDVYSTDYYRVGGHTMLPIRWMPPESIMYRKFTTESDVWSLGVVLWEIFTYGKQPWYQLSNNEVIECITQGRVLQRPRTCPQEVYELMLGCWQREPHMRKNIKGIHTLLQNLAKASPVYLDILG
Assay: PathHunter whole cell functional assay, BDNF stimulated TrkB activation
Details: triplicate
pIC50: −log10 of the molar value.
Recorded Endpoint: pIC50

# pIC50 (compound: `O=C(O)c1ccc(Nc2cc(N3CCN(C4CCCCC4)CC3)c3noc4c3c2C(=O)c2ccccc2-4)cc1` ) is < 5.00

----------
Experiment: Rat brain and plasma concentration after IV dosing
Assay type: in vivo
Conditions: male, CD IGS, brain/plasma, dose 3 and 5 mg/kg, 180 min, read-out: Ratio Brain/Plasma
Recorded Endpoint: Kp at 180 min
Answer using only a numeral; do not append any unit.

# Kp at 180 min (compound: `O=C([O-])c1ccc(Nc2cc(N3CCN(C4CCCCC4)CC3)c3noc4c3c2C(=O)c2ccccc2-4)cc1.[Na+]` ) is 0.019

----------
Assay: Rat brain and plasma concentration after IV dosing
Assay type: in vivo
Details: male, CD IGS, plasma, dose 3 and 5 mg/kg, 30 min, read-out: Plasma Concentration
Recorded Endpoint: concentration at 30 min (ng/mL)
Give your result in ng/mL as a bare value.

# concentration at 30 min (compound: `O=C([O-])c1ccc(Nc2cc(N3CCN(C4CCCCC4)CC3)c3noc4c3c2C(=O)c2ccccc2-4)cc1.[Na+]` ) is 11300

----------
Assay: Rat pharmacokinetics (plasma, LC-MS/MS, non-compartmental analysis)
Format: in vivo
Settings: male, CD IGS, plasma, IV, 3 mg/kg, mean
Recorded Endpoint: half-life (h)
Give your result in h as a bare value.

# half-life (compound: `O=C([O-])c1ccc(Nc2cc(N3CCN(C4CCCCC4)CC3)c3noc4c3c2C(=O)c2ccccc2-4)cc1.[Na+]` ) is 1.08

----------
Assay: Rat brain and plasma concentration after IV dosing
Type: in vivo
Details: male, CD IGS, brain, dose 3 and 5 mg/kg, 180 min, read-out: Brain concentration
Recorded Endpoint: concentration at 180 min

# concentration at 180 min (compound: O=C([O-])c1ccc(Nc2cc(N3CCN(C4CCCCC4)CC3)c3noc4c3c2C(=O)c2ccccc2-4)cc1.[Na+] [Compound I] ) is 23 ng/g
